experiment: Pharmacokinetics of TET in blood after a single i.v. administration in normal and LPS-induced ALI mice; conditions: male, BALB/c, mouse, in vivo, iv, 5 mg/kg, normal mice; 5 mg/kg i.v.; blood
readout name: AUC(0-t)
Provide the measurement as a number trailed by its unit.

Quick check: AUC(0-t) of COc1ccc2cc1Oc1ccc(cc1)C[C@H]1c3cc(c(OC)cc3CCN1C)Oc1c(OC)c(OC)cc3c1[C@H](C2)N(C)CC3 ?
26300 ng·h/mL

---

assay: Tissue distribution of TET after a single i.t. administration in normal and LPS-treated mice; conditions: BALB/c, mouse, liver, inhaled or intranasal, 15 mg/kg, Cmax, LPS-treated mice; 15 mg/kg i.t.
readout name: Cmax (µg/mL)
Report the figure in µg/mL without appending any unit label.

May I ask what Cmax has been recorded for COc1ccc2cc1Oc1ccc(cc1)C[C@H]1c3cc(c(OC)cc3CCN1C)Oc1c(OC)c(OC)cc3c1[C@H](C2)N(C)CC3 [TET, Tetrandrine] ?
76.3

---

test: Tissue distribution of TET after a single i.t. administration in normal and LPS-treated mice; settings: BALB/c, mouse, in vivo, inhaled or intranasal, 15 mg/kg, AUC(0-t), LPS-treated mice; 15 mg/kg i.t.; kidney
readout name: AUC(0-t) (µg·h/mL)
All answers are understood in µg·h/mL, so give the number only.

For the compound COc1ccc2cc1Oc1ccc(cc1)C[C@H]1c3cc(c(OC)cc3CCN1C)Oc1c(OC)c(OC)cc3c1[C@H](C2)N(C)CC3 , what AUC(0-t) is on record?
7940

---

experiment: Tissue distribution of TET after a single i.t. administration in normal and LPS-treated mice; settings: BALB/c, mouse, brain, inhaled or intranasal, 15 mg/kg, AUC(0-∞), normal mice; 15 mg/kg i.t.
readout name: AUC(0-inf) (µg·h/mL)
Entry rule: numbers only, all in µg·h/mL.

I am curious: what AUC(0-inf) value has been reported for COc1ccc2cc1Oc1ccc(cc1)C[C@H]1c3cc(c(OC)cc3CCN1C)Oc1c(OC)c(OC)cc3c1[C@H](C2)N(C)CC3 ?
190

---

assay: Tissue distribution of TET after a single i.t. administration in normal and LPS-treated mice; conditions: BALB/c, mouse, lung, inhaled or intranasal, 15 mg/kg, AUC(0-t), LPS-treated mice; 15 mg/kg i.t.
readout name: AUC(0-t)

// AUC(0-t) lookup, key: COc1ccc2cc1Oc1ccc(cc1)C[C@H]1c3cc(c(OC)cc3CCN1C)Oc1c(OC)c(OC)cc3c1[C@H](C2)N(C)CC3
10000 µg·h/mL

---

assay: Tissue distribution of TET after a single i.t. administration in normal and LPS-treated mice; settings: BALB/c, mouse, in vivo, inhaled or intranasal, 15 mg/kg, AUC(0-t), normal mice; 15 mg/kg i.t.; lung
readout name: AUC(0-t) (µg·h/mL)
Number in µg·h/mL, nothing else.

Can you share its AUC(0-t)? I mean this compound: COc1ccc2cc1Oc1ccc(cc1)C[C@H]1c3cc(c(OC)cc3CCN1C)Oc1c(OC)c(OC)cc3c1[C@H](C2)N(C)CC3
4310

---

test: Tissue distribution of TET after a single i.t. administration in normal and LPS-treated mice; details: BALB/c, mouse, blood, inhaled or intranasal, 15 mg/kg, MRT, normal mice; 15 mg/kg i.t.
readout name: MRT (h)
Express it in h; write the number only.

Name the recorded MRT for COc1ccc2cc1Oc1ccc(cc1)C[C@H]1c3cc(c(OC)cc3CCN1C)Oc1c(OC)c(OC)cc3c1[C@H](C2)N(C)CC3 [TET, Tetrandrine] .
111

---

experiment: Tissue distribution of TET after a single i.t. administration in normal and LPS-treated mice; conditions: BALB/c, mouse, muscle, inhaled or intranasal, 15 mg/kg, Cmax, LPS-treated mice; 15 mg/kg i.t.
readout name: Cmax (ng/mL)
Answer in ng/mL, number only, no unit symbol.

Need Cmax, item COc1ccc2cc1Oc1ccc(cc1)C[C@H]1c3cc(c(OC)cc3CCN1C)Oc1c(OC)c(OC)cc3c1[C@H](C2)N(C)CC3 [TET, Tetrandrine]
7510

---

experiment: Tissue distribution of TET after a single i.t. administration in normal and LPS-treated mice; details: BALB/c, mouse, liver, inhaled or intranasal, 15 mg/kg, MRT, normal mice; 15 mg/kg i.t.
readout name: MRT

Query: MRT; subject: COc1ccc2cc1Oc1ccc(cc1)C[C@H]1c3cc(c(OC)cc3CCN1C)Oc1c(OC)c(OC)cc3c1[C@H](C2)N(C)CC3
53.9 h

---

assay: Tissue distribution of TET after a single i.t. administration in normal and LPS-treated mice; conditions: BALB/c, mouse, muscle, inhaled or intranasal, 15 mg/kg, MRT, LPS-treated mice; 15 mg/kg i.t.
readout name: MRT (h)
Write the answer as a number in h, unit excluded.

Sample COc1ccc2cc1Oc1ccc(cc1)C[C@H]1c3cc(c(OC)cc3CCN1C)Oc1c(OC)c(OC)cc3c1[C@H](C2)N(C)CC3 — what was its MRT?
101

---

experiment: Tissue distribution of TET after a single i.t. administration in normal and LPS-treated mice; details: BALB/c, mouse, in vivo, inhaled or intranasal, 15 mg/kg, AUC(0-t), normal mice; 15 mg/kg i.t.; adipose
readout name: AUC(0-t) (µg·h/mL)
Answer in µg·h/mL, number only, no unit symbol.

AUC(0-t) for COc1ccc2cc1Oc1ccc(cc1)C[C@H]1c3cc(c(OC)cc3CCN1C)Oc1c(OC)c(OC)cc3c1[C@H](C2)N(C)CC3 [TET, Tetrandrine] ?
421

---

assay: Tissue distribution of TET after a single i.t. administration in normal and LPS-treated mice; settings: BALB/c, mouse, blood, other: intratracheal (i.t.), 15 mg/kg, Kp (AUC in tissue divided by AUC in blood), normal mice; 15 mg/kg i.t.; blood
readout name: Kp
I'd appreciate a reply containing only the number, no unit.

What value of Kp has been reported for the following compound? COc1ccc2cc1Oc1ccc(cc1)C[C@H]1c3cc(c(OC)cc3CCN1C)Oc1c(OC)c(OC)cc3c1[C@H](C2)N(C)CC3 [TET, Tetrandrine]
1

---

Experiment: Tissue distribution of TET after a single i.t. administration in normal and LPS-treated mice
Conditions: BALB/c, mouse, lung, inhaled or intranasal, 15 mg/kg, Cmax, LPS-treated mice; 15 mg/kg i.t.
Method: The different tissue distribution characteristics of TET in normal and pneumonia model mice via i.t. delivery were investigated. Thirty BALB/c mice were randomly divided into ten groups (n = 3 for each group). […] Pharmacokinetic parameters including t1/2, AUC(0-t), AUC(0-∞), and MRT were calculated using WinNonlin 7.0 (Pharsight, CA) by the non-compartmental model. […] Blood clearance (CL) was calculated as the i.v. dose divided by AUCinf. […]
readout name: Cmax

Returns the measured Cmax for the input molecule. Input: COc1ccc2cc1Oc1ccc(cc1)C[C@H]1c3cc(c(OC)cc3CCN1C)Oc1c(OC)c(OC)cc3c1[C@H](C2)N(C)CC3
≥ 96.2 µg/mL

---

test: Tissue distribution of TET after a single i.t. administration in normal and LPS-treated mice; conditions: BALB/c, mouse, adipose, inhaled or intranasal, 15 mg/kg, AUC(0-∞), normal mice; 15 mg/kg i.t.
readout name: AUC(0-inf) (µg·h/mL)
Please respond with the number in µg·h/mL and leave the unit unwritten.

// returns reported AUC(0-inf) for input COc1ccc2cc1Oc1ccc(cc1)C[C@H]1c3cc(c(OC)cc3CCN1C)Oc1c(OC)c(OC)cc3c1[C@H](C2)N(C)CC3
501

---

assay: Tissue distribution of TET after a single i.t. administration in normal and LPS-treated mice; conditions: BALB/c, mouse, adipose, inhaled or intranasal, 15 mg/kg, Cmax, LPS-treated mice; 15 mg/kg i.t.
readout name: Cmax (ng/mL)
Quick note: give the figure in ng/mL, leave out the unit.

I am curious: what Cmax value has been reported for COc1ccc2cc1Oc1ccc(cc1)C[C@H]1c3cc(c(OC)cc3CCN1C)Oc1c(OC)c(OC)cc3c1[C@H](C2)N(C)CC3 ?
5920

---

assay: Tissue distribution of TET after a single i.t. administration in normal and LPS-treated mice; conditions: BALB/c, mouse, kidney, inhaled or intranasal, 15 mg/kg, t1/2, LPS-treated mice; 15 mg/kg i.t.
readout name: half-life (h)
# unit: h | format: bare number

Dear colleague, I am looking for the recorded half-life of the following compound: COc1ccc2cc1Oc1ccc(cc1)C[C@H]1c3cc(c(OC)cc3CCN1C)Oc1c(OC)c(OC)cc3c1[C@H](C2)N(C)CC3
77.8

---

assay: Tissue distribution of TET after a single i.t. administration in normal and LPS-treated mice; settings: BALB/c, mouse, intestine, inhaled or intranasal, 15 mg/kg, t1/2, normal mice; 15 mg/kg i.t.
readout name: half-life (h)
A number alone suffices; assume h.

half-life lookup needed for COc1ccc2cc1Oc1ccc(cc1)C[C@H]1c3cc(c(OC)cc3CCN1C)Oc1c(OC)c(OC)cc3c1[C@H](C2)N(C)CC3 , thanks.
44.7
